- testSystem: human μ-opiate receptor (Homo sapiens, UniProt P35372)
- Construct: purchased PerkinElmer Life Sciences, Zaventem, Belgium RB-HOM; host or cells: CHO-K1 cells (recombinant expression; membrane preparation)
- Sequence (P35372 whole entry): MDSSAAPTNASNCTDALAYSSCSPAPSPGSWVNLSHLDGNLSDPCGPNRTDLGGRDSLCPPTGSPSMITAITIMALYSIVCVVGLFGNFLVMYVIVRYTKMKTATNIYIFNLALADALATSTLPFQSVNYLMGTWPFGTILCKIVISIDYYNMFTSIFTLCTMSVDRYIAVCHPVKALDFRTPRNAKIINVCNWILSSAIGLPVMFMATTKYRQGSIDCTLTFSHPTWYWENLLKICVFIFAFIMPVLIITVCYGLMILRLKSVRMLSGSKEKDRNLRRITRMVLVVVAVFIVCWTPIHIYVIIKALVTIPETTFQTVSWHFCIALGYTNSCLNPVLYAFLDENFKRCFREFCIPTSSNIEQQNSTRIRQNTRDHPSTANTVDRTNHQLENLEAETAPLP
- assayDetails: Affinity for the human μ-opiate receptor ([3H]-naloxone displacement, SPA)
- condition: Table 2, Examples 11-161; test substance 1 μmole/l; inhibition of specific [3H]-naloxone binding; CHO-K1 membranes; read-out: μ-Opioid receptor, % inhibition [1 μM]
Class YES: inhibition at 1 µM at least 90%. Class NO: inhibition at 1 µM below 90%.

INSERT INTO results (molecule, testsystem, qualitativelabel) VALUES
  ('COC(=O)C1(CCSC)N=CN(C2CCCCC2)C1CC1CCC(C(c2cccc(F)c2)N(C)C)CC1 (centres unmarked)', 'human μ-opiate receptor (Homo sapiens, UniProt P35372)', 'YES'),
  ('CCCN1C=NC(CSC)(C(=O)OC)C1C1CCC(C(c2cccc(F)c2)N(C)C)CC1 (centres unmarked)', 'human μ-opiate receptor (Homo sapiens, UniProt P35372)', 'NO'),
  ('CCCCN1C=NC(CCC)(C(=O)OC)C1CC1CCC(C(CCc2ccccc2)N(C)C)CC1 (centres unmarked)', 'human μ-opiate receptor (Homo sapiens, UniProt P35372)', 'NO'),
  ('COC(=O)C1(CCSC)N=CN(C2CCCCC2)C1CC1CCC(C(CCc2ccccc2)N(C)C)CC1 (centres unmarked)', 'human μ-opiate receptor (Homo sapiens, UniProt P35372)', 'NO'),
  ('COC(=O)C1(CCSC)N=CN(CCc2ccccc2)C1CC1CCC(C(c2cccc(F)c2)N(C)C)CC1 (centres unmarked)', 'human μ-opiate receptor (Homo sapiens, UniProt P35372)', 'YES');

###

- testSystem: human μ-opiate receptor (Homo sapiens, UniProt P35372)
- Construct: purchased PerkinElmer Life Sciences, Zaventem, Belgium RB-HOM; host or cells: CHO-K1 cells (recombinant expression; membrane preparation)
- assayDetails: Affinity for the human μ-opiate receptor ([3H]-naloxone displacement, SPA)
- condition: Table 1, aldehydes; test substance 1 μmole/l; inhibition of specific [3H]-naloxone binding; CHO-K1 membranes; read-out: μ-Opioid receptor, % inhibition [1 μM]
- Description: Investigations on the Efficacy of the Compounds According to the Invention Method for Determining the Affinity for the Human μ-Opiate Receptor The receptor affinity for the human μ-opiate receptor is determined in a homogeneous batch in microtiter plates. […] After the end of the 90 minutes' incubation time the microtiter plates are centrifuged for 20 minutes at 1000 g and the radioactivity is measured in a beta counter (Microbeta-Trilux, PerkinElmer Wallac, Freiburg, Germany). […]
measuredAttribute: inhibition at 1 µM (%)

INSERT INTO assay_data (molecule, measuredattribute, observedvalue) VALUES
  ('CN(C)C(c1ccc(Cl)cc1)C1CCC(C=O)CC1 (centres unmarked)', 'inhibition at 1 µM', 45),
  ('CN(C)C(c1cccs1)C1CCC(C=O)CC1 (centres unmarked)', 'inhibition at 1 µM', 69),
  ('CN(C)C(c1ccc(Cl)cc1)C1CCC(CC=O)CC1 (centres unmarked) [Example 10c]', 'inhibition at 1 µM', 50),
  ('CN(C)C(c1cccs1)C1CCC(CC=O)CC1 (centres unmarked) [Example 10d]', 'inhibition at 1 µM', 79),
  ('CN(C)C(c1cccc(F)c1)C1CCC(CC=O)CC1 (centres unmarked) [Example 10b]', 'inhibition at 1 µM', 67);

###

- testSystem: human μ-opiate receptor (Homo sapiens)
- Construct: purchased PerkinElmer Life Sciences, Zaventem, Belgium RB-HOM; host or cells: CHO-K1 cells (recombinant expression; membrane preparation)
- assayDetails: Affinity for the human μ-opiate receptor ([3H]-naloxone displacement, SPA)
- condition: Table 2, Examples 11-161; test substance 1 μmole/l; inhibition of specific [3H]-naloxone binding; CHO-K1 membranes; read-out: μ-Opioid receptor, % inhibition [1 μM]
Class satisfied: inhibition at 1 µM at least 90%. Class not satisfied: inhibition at 1 µM below 90%.

INSERT INTO measurements (compound, qualitativelabel) VALUES
  ('CCCN1C=NC(C(=O)OC)(C(C)CC)C1CC1CCC(C(c2ccc(Cl)cc2)N(C)C)CC1 (stereo not shown)', 'satisfied'),
  ('CCCCN1C=NC(CCCC)(C(=O)OC)C1C1CCC(C(c2ccc(Cl)cc2)N(C)C)CC1 (stereo not shown)', 'not satisfied'),
  ('CCCCN1C=NC(CCC(=O)OC)(C(=O)OC)C1CC1CCC(C(c2cccc(F)c2)N(C)C)CC1 (stereo not shown)', 'satisfied'),
  ('CCCCN1C=NC(CCSC)(C(=O)OC)C1CC1CCC(C(c2cccc(F)c2)N(C)C)CC1 (stereo not shown)', 'satisfied'),
  ('CCCCN1C=NC(CSC)(C(=O)OC)C1CC1CCC(C(c2ccc(Cl)cc2)N(C)C)CC1 (stereo not shown)', 'satisfied'),
  ('COC(=O)C1(CSCc2ccccc2)N=CN(C2CCCCC2)C1CC1CCC(C(c2cccc(F)c2)N(C)C)CC1 (stereo not shown)', 'satisfied'),
  ('CCCCN1C=NC(CCC(=O)OC)(C(=O)OC)C1C1CCC(C(c2cccc(F)c2)N(C)C)CC1 (stereo not shown)', 'not satisfied'),
  ('CCCN1C=NC(CSC)(C(=O)OC)C1CC1CCC(C(c2cccc(F)c2)N(C)C)CC1 (stereo not shown)', 'satisfied'),
  ('COC(=O)CCC1(C(=O)OC)N=CN(CCc2ccccc2)C1CC1CCC(C(CCc2ccccc2)N(C)C)CC1 (stereo not shown)', 'not satisfied'),
  ('CCCCN1C=NC(Cc2ccc(Cl)cc2)(C(=O)OC)C1C1CCC(C(c2ccc(Cl)cc2)N(C)C)CC1 (stereo not shown)', 'not satisfied'),
  ('CCCN1C=NC(CCC(=O)OC)(C(=O)OC)C1CC1CCC(C(c2ccc(Cl)cc2)N(C)C)CC1 (stereo not shown)', 'satisfied'),
  ('COC(=O)CCC1(C(=O)OC)N=CN(Cc2ccccc2)C1CC1CCC(C(c2cccc(F)c2)N(C)C)CC1 (stereo not shown)', 'satisfied'),
  ('CCCCN1C=NC(CCC(=O)OC)(C(=O)OC)C1CC1CCC(C(c2ccc(Cl)cc2)N(C)C)CC1 (stereo not shown)', 'satisfied'),
  ('CCCC1(C(=O)OC)N=CN(Cc2ccccc2)C1CC1CCC(C(c2ccc(F)cc2)N(C)C)CC1 (stereo not shown)', 'satisfied'),
  ('COC(=O)CCC1(C(=O)OC)N=CN(CCc2ccccc2)C1CC1CCC(C(c2ccc(F)cc2)N(C)C)CC1 (stereo not shown)', 'not satisfied'),
  ('COC(=O)CCC1(C(=O)OC)N=CN(C2CCCCC2)C1C1CCC(C(c2ccc(Cl)cc2)N(C)C)CC1 (stereo not shown)', 'satisfied'),
  ('CCCCN1C=NC(CCCC)(C(=O)OC)C1CC1CCC(C(c2ccc(Cl)cc2)N(C)C)CC1 (stereo not shown)', 'satisfied'),
  ('CCCCN1C=NC(CSCc2ccccc2)(C(=O)OC)C1CC1CCC(C(CCc2ccccc2)N(C)C)CC1 (stereo not shown)', 'not satisfied'),
  ('COC(=O)C1(CSC)N=CN(C2CCCCC2)C1CC1CCC(C(CCc2ccccc2)N(C)C)CC1 (stereo not shown)', 'not satisfied'),
  ('CCCCN1C=NC(CSC)(C(=O)OC)C1CC1CCC(C(c2cccc(F)c2)N(C)C)CC1 (stereo not shown)', 'satisfied'),
  ('CCCN1C=NC(CCC)(C(=O)OC)C1CC1CCC(C(c2ccc(F)cc2)N(C)C)CC1 (stereo not shown)', 'not satisfied');

###

- testSystem: human μ-opiate receptor (Homo sapiens, UniProt P35372)
- Construct: purchased PerkinElmer Life Sciences, Zaventem, Belgium RB-HOM; host or cells: CHO-K1 cells (recombinant expression; membrane preparation)
- assayDetails: Affinity for the human μ-opiate receptor ([3H]-naloxone displacement, SPA)
- condition: Table 2, Examples 11-161; test substance 1 μmole/l; inhibition of specific [3H]-naloxone binding; CHO-K1 membranes; read-out: μ-Opioid receptor, % inhibition [1 μM]
- Procedure: Investigations on the Efficacy of the Compounds According to the Invention Method for Determining the Affinity for the Human μ-Opiate Receptor The receptor affinity for the human μ-opiate receptor is determined in a homogeneous batch in microtiter plates. […] After the end of the 90 minutes' incubation time the microtiter plates are centrifuged for 20 minutes at 1000 g and the radioactivity is measured in a beta counter (Microbeta-Trilux, PerkinElmer Wallac, Freiburg, Germany). […]
Class T: inhibition at 1 µM at least 90%. Class F: inhibition at 1 µM below 90%.

INSERT INTO assay_data (molecule, qualitativelabel) VALUES
  ('COC(=O)C1(CSCc2ccccc2)N=CN(Cc2ccccc2)C1CC1CCC(C(c2cccc(F)c2)N(C)C)CC1 (centres unmarked)', 'F'),
  ('COC(=O)CCC1(C(=O)OC)N=CN(Cc2ccccc2)C1CC1CCC(C(c2ccc(F)cc2)N(C)C)CC1 (centres unmarked)', 'T'),
  ('COC(=O)C1(C)N=CN(C2CCCCC2)C1CC1CCC(C(c2ccc(F)cc2)N(C)C)CC1 (centres unmarked)', 'F'),
  ('CCCC1(C(=O)OC)N=CN(C2CCCCC2)C1CC1CCC(C(CCc2ccccc2)N(C)C)CC1 (centres unmarked)', 'F'),
  ('COC(=O)CCC1(C(=O)OC)N=CN(C2CCCCC2)C1CC1CCC(C(CCc2ccccc2)N(C)C)CC1 (centres unmarked)', 'F');
